# credit: patent US5372940A

- System: D-pantolactone hydrolase purified from Fusarium oxysporum (IFO 5942)
- MEASUREMENT_PROTOCOL: Substrate specificity (Km) and inhibition of purified D-pantolactone hydrolase
- Type: biochemical
- CONDITIONS_USED: purified enzyme; the compound is the substrate; read-out: Km (Michaelis constant)
compounds and their reported Km

COMPOUND	ASSAYED_TARGET	Km
CC1(C)COC(=O)[C@@H]1O [D-pantolactone]	D-pantolactone hydrolase purified from Fusarium oxysporum (IFO 5942)	82 mM
O=C1O[C@@H]([C@H](O)CO)[C@H](O)[C@H]1O [D-galactonolactone]	D-pantolactone hydrolase purified from Fusarium oxysporum (IFO 5942)	3.6 mM
O=C1O[C@@H]([C@H](O)CO)[C@@H](O)[C@H]1O [D-gulonolactone]	D-pantolactone hydrolase purified from Fusarium oxysporum (IFO 5942)	29 mM
O=C1O[C@@H]([C@@H](O)CO)[C@@H](O)[C@H]1O [L-mannonolactone]	D-pantolactone hydrolase purified from Fusarium oxysporum (IFO 5942)	23 mM
